Reference source: patent US11377442B2

Assay: PK in rat plasma
Type: in vivo
Details: rat; Table 36; PO plasma, 7.53 mg/kg
parameter: MRT last (h)
Respond with the bare value in h.

Give recorded MRT last. COCCN[C@H]1CS(=O)(=O)C[C@@H]1S(=O)(=O)c1ccc(Cl)cc1 [Compound D136]
1.13

====

Assay: PK in rat plasma
Type: in vivo
Details: rat; Table 38; IV plasma, 1.13 mg/kg
parameter: Tmax (min)
# output: bare number, implied unit min

Specify reported Tmax for the compound shown: COCCN[C@H]1CS(=O)(=O)C[C@@H]1S(=O)(=O)c1ccc(Cl)cc1
4.98

====

Experiment: PK in mice plasma
Type: in vivo
Conditions: mouse; Table 40; IV plasma, 1.12 mg/kg
parameter: AUC(0-inf) (ng·h/mL)
# unit: ng·h/mL | format: bare number

Give a short answer stating reported AUC(0-inf) for COCCN[C@H]1CS(=O)(=O)C[C@@H]1S(=O)(=O)c1ccc(Cl)cc1 .
124

====

Molecular target: NR2F6 (Homo sapiens, UniProt P10588)
Construct: expressed in transfected cells; also transient transfection
Sequence (P10588 1-404): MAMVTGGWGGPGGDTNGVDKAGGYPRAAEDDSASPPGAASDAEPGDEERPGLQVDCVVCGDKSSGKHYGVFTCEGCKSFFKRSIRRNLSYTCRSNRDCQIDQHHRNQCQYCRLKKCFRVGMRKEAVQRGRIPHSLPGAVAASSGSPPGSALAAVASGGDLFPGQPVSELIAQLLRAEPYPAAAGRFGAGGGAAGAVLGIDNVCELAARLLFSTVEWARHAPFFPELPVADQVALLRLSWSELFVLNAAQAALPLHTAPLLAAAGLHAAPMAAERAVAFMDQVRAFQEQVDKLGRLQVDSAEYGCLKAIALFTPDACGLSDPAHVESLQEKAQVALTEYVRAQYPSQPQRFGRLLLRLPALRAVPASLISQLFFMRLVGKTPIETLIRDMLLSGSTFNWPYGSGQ
Experiment: NR2F6 agonist screening, Firefly signal cmpd/DMSO
Format: cell-based
Settings: Table 13; ratio Firefly/Renilla, NR2F6 stable clone F4
parameter: Firefly/Renilla (NR2F6 stable, clone F4)
Answer as a number with no unit attached.

Tell me measured Firefly/Renilla (NR2F6 stable, clone F4) for O=c1oc2ccc([N+](=O)[O-])cc2cc1S(=O)(=O)c1ccccc1 [Compound C210] please.
1.5

Identify measured Firefly/Renilla (NR2F6 stable, clone F4) corresponding to COc1ccc(S(=O)(=O)c2cc3cc(Br)ccc3oc2=O)cc1OC [Compound C154]
1.6

Kindly indicate its recorded Firefly/Renilla (NR2F6 stable, clone F4). Item: O=c1oc2ccccc2cc1S(=O)(=O)c1cccc(Cl)c1 [Compound C109]
2.9

Determine its reported Firefly/Renilla (NR2F6 stable, clone F4): COc1ccc(NC(=O)c2ccc3oc(=O)c(S(=O)(=O)c4ccc(Cl)cc4)cc3c2)cc1 [Compound C180]
1.1

Please report the measured Firefly/Renilla (NR2F6 stable, clone F4) for Cc1ccc(S(=O)(=O)c2cc3cc(Br)ccc3oc2=O)cc1 [Compound C197]
1.1

====

Experiment: PK in mice plasma
Type: in vivo
Conditions: mouse; Table 39; PO plasma, 3.18 mg/kg
parameter: MRT inf
Answer with the figure and its unit, nothing else.

Please report the measured MRT inf for COCCN[C@H]1CS(=O)(=O)C[C@@H]1S(=O)(=O)c1ccc(Cl)cc1 [Compound D136]
1.08 h
